# Test system: RARa homodimer (NR concentration 270 nM)
# Assay Protocol: PBM binding z-score (relative to random genomic background probes); higher = stronger binding; sequences stand for … in GC…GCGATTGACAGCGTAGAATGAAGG
Exercise: for every item that follows, state its recorded PBM binding z-score.
Give bare numbers.

residue_codes=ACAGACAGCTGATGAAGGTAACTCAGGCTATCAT recorded_result=0.287
residue_codes=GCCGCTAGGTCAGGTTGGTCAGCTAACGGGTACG recorded_result=-0.74
residue_codes=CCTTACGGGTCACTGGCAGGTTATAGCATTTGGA recorded_result=0.895
residue_codes=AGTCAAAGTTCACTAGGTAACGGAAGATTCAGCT recorded_result=1.02
residue_codes=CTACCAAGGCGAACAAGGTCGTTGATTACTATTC recorded_result=0.111
residue_codes=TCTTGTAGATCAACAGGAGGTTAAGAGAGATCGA recorded_result=-0.275
residue_codes=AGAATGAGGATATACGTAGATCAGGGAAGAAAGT recorded_result=0.32
residue_codes=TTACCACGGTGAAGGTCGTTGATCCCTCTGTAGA recorded_result=-0.497

Provide reported PBM binding z-score for each item, in the same order as listed.
1. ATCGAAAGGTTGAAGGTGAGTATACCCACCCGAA
2. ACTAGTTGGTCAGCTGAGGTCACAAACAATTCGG

[0.177, 1.05]
